- System: HCT116 WT cells
- assay method text: HCT116 WT cell proliferation / viability (CellTiter-Glo, 6 days)
- Assay type: cell-based
- condition context: Homo sapiens, HCT-116, 144 h, HCT116 WT cells, 6 days, CellTiter-Glo; read-out: HCT-116 WT IC50
attribute measured: IC50 (nM)

{"columns": ["compound", "IC50 / nM"],
 "data": [
  ["Cn1ncc2c(N)nc3cc(Cl)c(C(=O)N(Cc4ccc(C(F)(F)F)nn4)C4CC4)cc3c21 [Example 796]", 1670]
]}

(a) CN(Cc1ccc(S(F)(F)(F)(F)F)cc1O)C(=O)c1cc2c3c(c(N)nc2cc1F)COC3 [Example 576]
(b) CCN(C(=O)c1cc2c3c(c(N)nc2cc1F)COC3)[C@H](C)c1ccc(C(F)(F)F)nn1 [Example 781]
(c) C[C@H](c1ccc(C(F)(F)F)nn1)N(C)C(=O)c1cc2c(cc1F)nc(N)c1c2cnn1C [Example 779]
(d) COc1cc2nc(N)c3c(c2cc1C(=O)N(C)Cc1ccc(C(F)(F)F)cn1)COC3 [Example 502]
Q: Arrange by IC50, high to low. Labels, ranked as asked.
Result: d, c, a, b
(d: 47300 nM, c: 28900 nM, a: 2080 nM, b: 1310 nM)

(a) C[C@H](c1ncc(C(F)(F)F)cc1F)N(C)C(=O)c1cc2c(cc1F)nc(N)c1c2cnn1C (single isomer, unassigned) [Example 865]
(b) C[C@H](c1cnc(C(F)(F)F)cn1)N(C)C(=O)c1ccc2nc(N)c3c(c2c1)COC3 [Example 774]
Q: Which gives the smaller IC50 number: a or b ? Respond with the label that goes with your answer.
Result: a
(a: 2810 nM, b: 40600 nM)

(P) CN(Cc1ccc(C(F)(F)F)nn1)C(=O)c1cc2c(cc1Cl)nc(N)c1cnn(C)c12 [Example 792]
(Q) C[C@@H](C1CC1)N(Cc1ccc(C(F)(F)F)nn1)C(=O)c1cc2c3c(c(N)nc2cc1F)COC3 [Example 815]
(R) COc1ccc(CN(C(=O)c2ccc3nc(N)c4c(c3c2)COC4)C(C)C)nc1Cl [Example 462]
Q: Arrange the 3 entries by IC50 so the values rise. Labels, ranked as asked.
Result: Q, P, R

(1) CC1OCc2c1c(N)nc1ccc(C(=O)N(Cc3ccc(C(F)(F)F)cn3)[C@H]3C[C@@H]3C(F)(F)F)cc21 (mixture of isomers) [Example 910]
(2) CCN(Cc1ccc(C(F)(F)F)cn1)C(=O)c1ccc2nc(N)c3c(C)noc3c2c1 [Example 547]
(3) CC(C)N(Cc1ccc(OC(F)(F)F)cn1)C(=O)c1ccc2nc(N)c3c(c2c1)CO[C@@H]3C [Example 465]
Q: Arrange by IC50, high to low. Labels, ranked as asked.
Result: 2, 1, 3
(2: 24500 nM, 1: 3000 nM, 3: 1230 nM)
